Where do these numbers come from? They come from PubChem BioAssay AID2060349.

test system: 762968-020-R-J2-PDC spheroids viability; experiment: Anticancer human tumor 762968-020-R-J2-PDC patient-derived colon carcinoma cell line growth inhibition [TAK]; conditions: second compound 30 µM; first compound 0.01 µM; stronger effect = lower value; spheroids with HUVEC and MSC
The entries below come with measured viability, T/C values attached.
Report the value in % with no unit label.

Example entries begin here.
CC(C)CC(NC(=O)C(Cc1ccccc1)NC(=O)c1cnccn1)B(O)O (stereo not given) + CC(C)NCC(C(=O)N1CCN(c2ncnc3c2C(C)CC3O)CC1)c1ccc(Cl)cc1 : 87.2
CC(C)n1nc(-c2ccc3oc(N)nc3c2)c2c(N)ncnc21 + CC(C)NCC(C(=O)N1CCN(c2ncnc3c2C(C)CC3O)CC1)c1ccc(Cl)cc1 : 81.9
CC(C)CC(NC(=O)CNC(=O)c1cc(Cl)ccc1Cl)B1OC(=O)CC(CC(=O)O)(C(=O)O)O1 (stereo not given) + CC(C)NCC(C(=O)N1CCN(c2ncnc3c2C(C)CC3O)CC1)c1ccc(Cl)cc1 : 88
COC1CC2CCC(C)C(O)(O2)C(=O)C(=O)N2CCCCC2C(=O)OC(C(C)CC2CCC(OCCO)C(OC)C2)CC(=O)C(C)C=C(C)C(O)C(OC)C(=O)C(C)CC(C)C=CC=CC=C1C (stereo not given) + CC(C)NCC(C(=O)N1CCN(c2ncnc3c2C(C)CC3O)CC1)c1ccc(Cl)cc1 : 86.4

Could you now look at the following molecule, please?
What does the record list as viability, T/C for COc1c(OCCCN2CCOCC2)ccc2c3n(c(=NC(=O)c4cnc(N)nc4)nc12)CCN3 + CC(C)NCC(C(=O)N1CCN(c2ncnc3c2C(C)CC3O)CC1)c1ccc(Cl)cc1 ?
81.3

---

system: 762968-020-R-J2-PDC spheroids viability; experiment: Anticancer human tumor 762968-020-R-J2-PDC cell line growth inhibition [TAK]; conditions: curve of compound; spheroids with HUVEC and MSC;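 note: spheroids exposed to drug for 7 days before readout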
# Lookup of reported IC50 keyed by entry

Use these answered entries as a reference point.
CC(C)CC(NC(=O)CNC(=O)c1cc(Cl)ccc1Cl)B1OC(=O)CC(CC(=O)O)(C(=O)O)O1 (configuration not stated) : > 100 nM
COC1CC2CCC(C)C(O)(O2)C(=O)C(=O)N2CCCCC2C(=O)OC(C(C)CC2CCC(OCCO)C(OC)C2)CC(=O)C(C)C=C(C)C(O)C(OC)C(=O)C(C)CC(C)C=CC=CC=C1C (configuration not stated) : > 100 nM
Cc1nc(NC(=O)N2CCCC2C(N)=O)sc1-c1ccnc(C(C)(C)C(F)(F)F)c1 (configuration not stated) : > 10000 nM
CC(C)(C)c1nc(-c2cccc(NS(=O)(=O)c3c(F)cccc3F)c2F)c(-c2ccnc(N)n2)s1 : > 10000 nM
CCCS(=O)(=O)Nc1ccc(F)c(C(=O)c2c[nH]c3ncc(-c4ccc(Cl)cc4)cc23)c1F : > 100000 nM
CC(C)CC(NC(=O)C(Cc1ccccc1)NC(=O)c1cnccn1)B(O)O (configuration not stated) : > 10 nM

Record lookup: for 762968-020-R-J2-PDC spheroids viability, what IC50 belongs to CC(C)n1nc(-c2ccc3oc(N)nc3c2)c2c(N)ncnc21 ?
> 100 nM

---

Readings of pIC50 for the listed molecules
tested on: 762968-020-R-J2-PDC spheroids viability; experiment: Anticancer human tumor 762968-020-R-J2-PDC cell line growth inhibition [TAK]; conditions: curve of first compound; second compound 0.3 µM; spheroids with HUVEC and MSC;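 note: spheroids exposed to drug for 7 days before readout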
pIC50: −log10 of the molar value.

Previously resolved entries follow.
CC(C)CC(NC(=O)C(Cc1ccccc1)NC(=O)c1cnccn1)B(O)O (stereo not given) + CC(C)NCC(C(=O)N1CCN(c2ncnc3c2C(C)CC3O)CC1)c1ccc(Cl)cc1 : < 8.00
CCCS(=O)(=O)Nc1ccc(F)c(C(=O)c2c[nH]c3ncc(-c4ccc(Cl)cc4)cc23)c1F + CC(C)NCC(C(=O)N1CCN(c2ncnc3c2C(C)CC3O)CC1)c1ccc(Cl)cc1 : < 4.00
CC(C)CC(NC(=O)CNC(=O)c1cc(Cl)ccc1Cl)B1OC(=O)CC(CC(=O)O)(C(=O)O)O1 (stereo not given) + CC(C)NCC(C(=O)N1CCN(c2ncnc3c2C(C)CC3O)CC1)c1ccc(Cl)cc1 : < 7.00

Which pIC50 reading was recorded for the molecule COC1CC2CCC(C)C(O)(O2)C(=O)C(=O)N2CCCCC2C(=O)OC(C(C)CC2CCC(OCCO)C(OC)C2)CC(=O)C(C)C=C(C)C(O)C(OC)C(=O)C(C)CC(C)C=CC=CC=C1C (stereo not given) + CC(C)NCC(C(=O)N1CCN(c2ncnc3c2C(C)CC3O)CC1)c1ccc(Cl)cc1 ?
< 7.00

---

tested on: 762968-020-R-J2-PDC spheroids viability; experiment: Anticancer human tumor 762968-020-R-J2-PDC cell line growth inhibition [TAK]; details: compound alone; run of 02/28/2020; spheroids with HUVEC and MSC;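 note: spheroids exposed to drug for 7 days before readout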
Measurement kind: IC50 (µM)
// note: answer is a bare numeric in µM

Look up IC50 for this molecule: CC(C)NCC(C(=O)N1CCN(c2ncnc3c2C(C)CC3O)CC1)c1ccc(Cl)cc1 (stereo unspecified)
17.2

---

tested on: 762968-020-R-J2-PDC spheroids viability; assay: Anticancer human tumor 762968-020-R-J2-PDC cell line growth inhibition [TAK]; conditions: second compound 3 µM; first compound 0.0316 µM; stronger effect = lower value; spheroids with HUVEC and MSC;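 note: spheroids exposed to drug for 7 days before readout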;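 for viability, T/C: 100% = DMSO vehicle control wells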
Catalogue of viability, T/C readings, one per entry.
API: value field is a number in %; no unit string.

CC(C)n1nc(-c2ccc3oc(N)nc3c2)c2c(N)ncnc21 + CC(C)NCC(C(=O)N1CCN(c2ncnc3c2C(C)CC3O)CC1)c1ccc(Cl)cc1 : 92.3

Short answer please: viability, T/C, 762968-020-R-J2-PDC spheroids viability, entry COC1CC2CCC(C)C(O)(O2)C(=O)C(=O)N2CCCCC2C(=O)OC(C(C)CC2CCC(OCCO)C(OC)C2)CC(=O)C(C)C=C(C)C(O)C(OC)C(=O)C(C)CC(C)C=CC=CC=C1C (stereo unspecified) + CC(C)NCC(C(=O)N1CCN(c2ncnc3c2C(C)CC3O)CC1)c1ccc(Cl)cc1
95.1

Now the molecule COc1c(OCCCN2CCOCC2)ccc2c3n(c(=NC(=O)c4cnc(N)nc4)nc12)CCN3 + CC(C)NCC(C(=O)N1CCN(c2ncnc3c2C(C)CC3O)CC1)c1ccc(Cl)cc1
98.3

Same thing, different molecule: CC(C)(C)c1nc(-c2cccc(NS(=O)(=O)c3c(F)cccc3F)c2F)c(-c2ccnc(N)n2)s1 + CC(C)NCC(C(=O)N1CCN(c2ncnc3c2C(C)CC3O)CC1)c1ccc(Cl)cc1
95.6

Next molecule: CC(C)CC(NC(=O)CNC(=O)c1cc(Cl)ccc1Cl)B1OC(=O)CC(CC(=O)O)(C(=O)O)O1 (stereo unspecified) + CC(C)NCC(C(=O)N1CCN(c2ncnc3c2C(C)CC3O)CC1)c1ccc(Cl)cc1
95.2

Continue with Cc1nc(NC(=O)N2CCCC2C(N)=O)sc1-c1ccnc(C(C)(C)C(F)(F)F)c1 (stereo unspecified) + CC(C)NCC(C(=O)N1CCN(c2ncnc3c2C(C)CC3O)CC1)c1ccc(Cl)cc1
108

---

test system: 762968-020-R-J2-PDC spheroids viability; test: Anticancer human tumor 762968-020-R-J2-PDC cell line growth inhibition [TAK]; conditions: second compound 30 µM; first compound 0.316 µM; stronger effect = lower value; spheroids with HUVEC and MSC;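 note: spheroids exposed to drug for 7 days before readout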;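 for viability, T/C: 100% = DMSO vehicle control wells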
Measurement kind: viability, T/C

CCCS(=O)(=O)Nc1ccc(F)c(C(=O)c2c[nH]c3ncc(-c4ccc(Cl)cc4)cc23)c1F + CC(C)NCC(C(=O)N1CCN(c2ncnc3c2C(C)CC3O)CC1)c1ccc(Cl)cc1 : 77.2%
CC(C)(C)c1nc(-c2cccc(NS(=O)(=O)c3c(F)cccc3F)c2F)c(-c2ccnc(N)n2)s1 + CC(C)NCC(C(=O)N1CCN(c2ncnc3c2C(C)CC3O)CC1)c1ccc(Cl)cc1 : 81.6%
Cc1nc(NC(=O)N2CCCC2C(N)=O)sc1-c1ccnc(C(C)(C)C(F)(F)F)c1 (centres undefined) + CC(C)NCC(C(=O)N1CCN(c2ncnc3c2C(C)CC3O)CC1)c1ccc(Cl)cc1 : 81.8%

Let us examine a further case.
May I ask what viability, T/C has been recorded for COc1c(OCCCN2CCOCC2)ccc2c3n(c(=NC(=O)c4cnc(N)nc4)nc12)CCN3 + CC(C)NCC(C(=O)N1CCN(c2ncnc3c2C(C)CC3O)CC1)c1ccc(Cl)cc1 ?
68.7%

---

Test system: 762968-020-R-J2-PDC spheroids viability
Assay: Anticancer human tumor 762968-020-R-J2-PDC cell line growth inhibition [TAK];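 note: spheroids exposed to drug for 7 days before readout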
Conditions: compound alone; run of 03/19/2020; spheroids with HUVEC and MSC
Experimental: Combinatorial screen of targeted agents with TAK-243 and ipatasertib in multi-cell type tumor spheroids […] Compounds. […] If the clinical Cmax for an agent had not been determined, the highest concentration tested was 10 microM. NCI60 Cell Culture. […] The optimal seeding densities for each of the cell lines at each time point assessed were determined prior to performing the concentration response studies. […]
pIC50: −log10 of the molar value.
Measurement kind: pIC50

Can you look up the measured pIC50 of CC(C)NCC(C(=O)N1CCN(c2ncnc3c2C(C)CC3O)CC1)c1ccc(Cl)cc1 (stereo unspecified) for me?
< 4.52
